System: HOP-92 NSCLC
procedureSummary: NCI tumour cell line growth inhibition, 48 h

>  <molecule>
CN1CCN(c2ccc3nc(-c4c5cccccc-5[nH]c4=O)[nH]c3c2)CC1

>  <measurementTarget>
HOP-92 NSCLC

>  <TGI>
> 100 µM

$$$$
>  <molecule>
CN([O-])c1nc(N(C)[O-])nc(N2CCOCC2)n1.CN([O-])c1nc(N(C)[OH2+])nc(N2CCOCC2)n1.[Fe+3]

>  <measurementTarget>
HOP-92 NSCLC

>  <TGI>
> 100 µM

$$$$
>  <molecule>
O=C(N=C1N(c2ccccc2)C(=O)C(=O)N1c1ccccc1)c1ccccc1

>  <measurementTarget>
HOP-92 NSCLC

>  <TGI>
20.8 µM

$$$$
>  <molecule>
FC(F)(F)c1ccc(-c2cncn2-c2ccccc2)cc1

>  <measurementTarget>
HOP-92 NSCLC

>  <TGI>
18.9 µM

$$$$
>  <molecule>
CNC(=O)N(C1=NCC(C)S1)c1ccc(C)c(C)c1 (configuration not stated)

>  <measurementTarget>
HOP-92 NSCLC

>  <TGI>
> 29.5 µM

$$$$
>  <molecule>
CC(C)(N=NC(C)(C)C(=N)N)C(=N)N

>  <measurementTarget>
HOP-92 NSCLC

>  <TGI>
> 100 µM

$$$$
>  <molecule>
CC1CN1C1=CC(=O)c2c(c(CO)cn2C)C1=O (configuration not stated)

>  <measurementTarget>
HOP-92 NSCLC

>  <TGI>
35.6 µM

$$$$
>  <molecule>
C=CC(=O)NC(O)(C(=O)OCC)C(F)(F)F (configuration not stated)

>  <measurementTarget>
HOP-92 NSCLC

>  <TGI>
> 100 µM

$$$$
>  <molecule>
CN(C(=O)c1ccccc1)C1CCCC(=O)CC1 (configuration not stated)

>  <measurementTarget>
HOP-92 NSCLC

>  <TGI>
> 100 µM

$$$$
>  <molecule>
CC(=O)N=C1C=C(NC(C)=O)C(=O)c2ccccc21

>  <measurementTarget>
HOP-92 NSCLC

>  <TGI>
3.15 µM

$$$$
>  <molecule>
CC1=CC2CCC1(C)C/C2=C(/C)OC=O (configuration not stated)

>  <measurementTarget>
HOP-92 NSCLC

>  <TGI>
> 100 µM

$$$$
>  <molecule>
O=C(CON1C(=O)c2ccccc2C1=O)c1ccccc1

>  <measurementTarget>
HOP-92 NSCLC

>  <TGI>
> 100 µM

$$$$
>  <molecule>
O=C1c2ccc(O)cc2OC(c2cc(O)c(O)c(O)c2)C1O (configuration not stated)

>  <measurementTarget>
HOP-92 NSCLC

>  <TGI>
> 100 µM

$$$$
>  <molecule>
COC(=O)C1=C(O)[C@H](C(=O)OC)C2(O)[C@@H](C(=O)OC)[C@H]1C[C@@H](c1ccc(OC(=O)n3ccnc3)cc1)[C@@H]2C(=O)OC

>  <measurementTarget>
HOP-92 NSCLC

>  <TGI>
> 50 µM

$$$$
>  <molecule>
COc1ccc(S(=O)(=O)Nc2cc(/C=C\c3cc(OC)c(OC)c(OC)c3)cc(OC)c2OC)cc1

>  <measurementTarget>
HOP-92 NSCLC

>  <TGI>
82.3 µM

$$$$
>  <molecule>
Cc1ccc2nc(NC(=O)C(=O)C3C(=O)NC(=S)NC3=O)sc2c1

>  <measurementTarget>
HOP-92 NSCLC

>  <TGI>
> 100 µM

$$$$
>  <molecule>
Cc1cc(C)c(OC(=O)Nc2cccc3ccccc23)c(-c2ccccc2)c1

>  <measurementTarget>
HOP-92 NSCLC

>  <TGI>
78.6 µM

$$$$
>  <molecule>
COc1cccc2c(Nc3ccc(S(=O)(=O)Nc4ncccn4)cc3)c3ccc([N+](=O)[O-])cc3nc12

>  <measurementTarget>
HOP-92 NSCLC

>  <TGI>
> 100 µM

$$$$
>  <molecule>
c1ccc2cc(CN3CCC(C4CCN(Cc5ccc6ccccc6c5)CC4)CC3)ccc2c1

>  <measurementTarget>
HOP-92 NSCLC

>  <TGI>
12.2 µM

$$$$
>  <molecule>
c1ccc(NNN2NC(c3ccccc3)C2c2ccccc2)cc1 (configuration not stated)

>  <measurementTarget>
HOP-92 NSCLC

>  <TGI>
> 100 µM

$$$$
>  <molecule>
COc1cc(/C=N/c2nncs2)ccc1O

>  <measurementTarget>
HOP-92 NSCLC

>  <TGI>
> 100 µM

$$$$
>  <molecule>
CC(=O)OC[C@]1(C)C=C2C(=O)[C@](C)(O)C3(CC3)C(C)=C2[C@H]1OC(=O)N(C)CCN(C)C(=O)OC(C)(C)C

>  <measurementTarget>
HOP-92 NSCLC

>  <TGI>
3.02 µM

$$$$
